assay: yeast display, Sf9 membrane polyspecificity reagent, FACS + sequencing; frameworks hold sequencing errors
Measurement Type: polyreactivity (PSR sort gate)

Field: example entries. Status: answers known.
Residue String	polyreactivity (PSR sort gate)
QVQLVESGGGLVQAGGSLRLSCAASGFTFDSYAMGWYRQAPGNDRELVAAISYRGGSTYYADSVKGRFSISRDNAKNTVYLQMNSLKPEDTAVFYCAARSPSAAYGSYGVYSWGQGTQVTVSS	high polyreactivity
QVQLVESGGGLVQAGGSLRLSCAASGSIFYKYTMGWYRPAPGKERELVAAISRSGGRTYYADSVKGRFTISRDNAKNTVYLQMNSLKPEDTAVYYCARDLKIVEYDYWGQGTQVTVSS	low polyreactivity
QVQLVESGGGLVQAGGSLRLSCAASGSNFTSYAMGWYRQAPGKERELVAAITRGGRTYYADSVKGRFTISRDNAKNTVYLQMNSLKPEDTAVFYCNAPGYRGYEYWGQGTQVTVSS	high polyreactivity
QVQLVESGGGLVQAGGSLRLSCAASGRIFVVYAMGWYRQAPGKERELVAAITYGGGSTHYADSVKGRFTISRDNAMNTVYLQMISLKPEDTAVYYCAADLFYHSYGYEYWGQGTQVTVSS	low polyreactivity
QVQLVESGGGLVQAGGSLRLSCAASGSTFADYVMGWYRQAPGKERELVAAISRSGGSTYYADSEKGRFTISRDTAKNTVYLQTNSLKPEDTAVYYCAAVKARRYDYWGQGTQVTVSS	high polyreactivity

The reported polyreactivity (PSR sort gate) of the sequence QVQLVESGGGLVQAGGSLRLSCAASGYTFIVNAIGWYRQAPGKERELVAGISYRGGRTFYADSVKGRFTISRDNAKNTVYLQMNSLKPEDTAVYYCAARKTGIPFYNYDYWGQGTQVTVSS was low polyreactivity

The origin of these recorded values is the nanobody polyreactivity screen of Harvey et al. (2022).
